Attribution: ChEMBL document CHEMBL4622969

UniProt:Q72874 pIC50 data
pIC50 here is simply -log10 of the concentration when that concentration is written in mol/L.

# structure, targetEntity, pIC50
data = [
    ("COc1cc(O)c(C(=O)N[C@@H](Cc2ccccc2)[C@H](O)CN(C[C@@H](C)O)S(=O)(=O)c2ccc(C(F)(F)F)cc2)cc1OC", "UniProt:Q72874", 7.21),
]

Req: Provide the reported pIC50 (system: UniProt:Q72874) for COc1cc(C(=O)N[C@@H](Cc2ccccc2)[C@H](O)CN(C[C@@H](C)O)S(=O)(=O)c2ccc([N+](=O)[O-])cc2)cc(OC)c1O
Resp: 7.88

Req: Provide the reported pIC50 (system: UniProt:Q72874) for C[C@H](O)CN(C[C@@H](O)[C@H](Cc1ccccc1)NC(=O)c1ccccc1O)S(=O)(=O)c1ccc([N+](=O)[O-])cc1
Resp: 7.11

Req: Provide the reported pIC50 (system: UniProt:Q72874) for C[C@@H](O)CN(C[C@@H](O)[C@H](Cc1ccccc1)NC(=O)c1ccccc1O)S(=O)(=O)c1ccc([N+](=O)[O-])cc1
Resp: 8.05

Req: Provide the reported pIC50 (system: UniProt:Q72874) for COc1cc(O)c(C(=O)N[C@@H](Cc2ccccc2)[C@H](O)CN(C[C@@H](C)O)S(=O)(=O)c2ccc([N+](=O)[O-])cc2)cc1OC
Resp: 6.99

Req: Provide the reported pIC50 (system: UniProt:Q72874) for C[C@@H](O)CN(C[C@@H](O)[C@H](Cc1ccccc1)NC(=O)c1ccc(O)c(O)c1)S(=O)(=O)c1ccc([N+](=O)[O-])cc1
Resp: 7.99

----------
Human immunodeficiency virus type 1 protease (Human immunodeficiency virus 1) pIC50 data
pIC50 here is simply -log10 of the concentration when that concentration is written in mol/L.

Req: Provide the reported pIC50 (system: Human immunodeficiency virus type 1 protease (Human immunodeficiency virus 1)) for C[C@H](O)CN(C[C@@H](O)[C@H](Cc1ccccc1)NC(=O)c1cc(O)cc(O)c1)S(=O)(=O)c1ccc(C(F)(F)F)cc1
Resp: 7.57

Req: Provide the reported pIC50 (system: Human immunodeficiency virus type 1 protease (Human immunodeficiency virus 1)) for C[C@@H](O)CN(C[C@@H](O)[C@H](Cc1ccccc1)NC(=O)c1cc(O)cc(O)c1)S(=O)(=O)c1ccc([N+](=O)[O-])cc1
Resp: 8.32

Req: Provide the reported pIC50 (system: Human immunodeficiency virus type 1 protease (Human immunodeficiency virus 1)) for COc1cc(O)c(C(=O)N[C@@H](Cc2ccccc2)[C@H](O)CN(C[C@H](C)O)S(=O)(=O)c2ccc(C(F)(F)F)cc2)cc1OC
Resp: 6.55

Req: Provide the reported pIC50 (system: Human immunodeficiency virus type 1 protease (Human immunodeficiency virus 1)) for C[C@@H](O)CN(C[C@@H](O)[C@H](Cc1ccccc1)NC(=O)c1ccc(O)cc1O)S(=O)(=O)c1ccc([N+](=O)[O-])cc1
Resp: 7.87

----------
Human immunodeficiency virus type 1 protease (Human immunodeficiency virus 1) pIC50 data
pIC50 here is simply -log10 of the concentration when that concentration is written in mol/L.

Sample records with pIC50:
# structure, targetEntity, assayResult
measured = [
    ("COc1ccc(C(=O)N[C@@H](Cc2ccccc2)[C@H](O)CN(C[C@@H](C)O)S(=O)(=O)c2ccc([N+](=O)[O-])cc2)c(O)c1", "Human immunodeficiency virus type 1 protease (Human immunodeficiency virus 1)", 6.20),
    ("C[C@H](O)CN(C[C@@H](O)[C@H](Cc1ccccc1)NC(=O)c1ccccc1O)S(=O)(=O)c1ccc(C(F)(F)F)cc1", "Human immunodeficiency virus type 1 protease (Human immunodeficiency virus 1)", 6.59),
    ("C[C@@H](O)CN(C[C@@H](O)[C@H](Cc1ccccc1)NC(=O)c1cc(O)cc(O)c1)S(=O)(=O)c1ccc(C(F)(F)F)cc1", "Human immunodeficiency virus type 1 protease (Human immunodeficiency virus 1)", 8.63),
]

Shifting focus to the compound that follows.
Req: Provide the reported pIC50 (system: Human immunodeficiency virus type 1 protease (Human immunodeficiency virus 1)) for C[C@H](O)CN(C[C@@H](O)[C@H](Cc1ccccc1)NC(=O)c1ccc(O)c(O)c1)S(=O)(=O)c1ccc([N+](=O)[O-])cc1
Resp: 8.18
